# ASSAY_COMMENT: Solubility noted on isolation of the product
# Format: physicochemical
# SETTINGS: alcohols
ENDPOINT: solubility in alcohols

INSERT INTO assay_data (molecule, recorded_value) VALUES
  ('COc1cc2c3c(c1)OC1C[C@@H](O)C=C[C@@]31CC[N+](C)(Cc1ccccc1)C2.[Br-] (stereo partly shown) [galanthamine benzyl bromide]', 'soluble'),
  ('COc1cc2c3c(c1)OC1C/C(=N/NC(N)=O)C=C[C@@]31CCN(C)C2 (stereo partly shown)', 'soluble'),
  ('COc1ccc2c3c1O[C@H]1C[C@H](OC(C)=O)C=C[C@@]31CCN(C)C2 [epigalanthamine acetate (from Example 8), epigalanthamine acetate]', 'soluble'),
  ('COc1ccc2c3c1O[C@H]1C[C@@H](O[Si](C(C)C)(C(C)C)C(C)C)C=C[C@@]31CCN(C)C2', 'soluble');

====

# EXPERIMENTAL_SYSTEM: acetylcholinesterase (Homo sapiens, UniProt P22303)
# Sequence (P22303 32-614, species assumed): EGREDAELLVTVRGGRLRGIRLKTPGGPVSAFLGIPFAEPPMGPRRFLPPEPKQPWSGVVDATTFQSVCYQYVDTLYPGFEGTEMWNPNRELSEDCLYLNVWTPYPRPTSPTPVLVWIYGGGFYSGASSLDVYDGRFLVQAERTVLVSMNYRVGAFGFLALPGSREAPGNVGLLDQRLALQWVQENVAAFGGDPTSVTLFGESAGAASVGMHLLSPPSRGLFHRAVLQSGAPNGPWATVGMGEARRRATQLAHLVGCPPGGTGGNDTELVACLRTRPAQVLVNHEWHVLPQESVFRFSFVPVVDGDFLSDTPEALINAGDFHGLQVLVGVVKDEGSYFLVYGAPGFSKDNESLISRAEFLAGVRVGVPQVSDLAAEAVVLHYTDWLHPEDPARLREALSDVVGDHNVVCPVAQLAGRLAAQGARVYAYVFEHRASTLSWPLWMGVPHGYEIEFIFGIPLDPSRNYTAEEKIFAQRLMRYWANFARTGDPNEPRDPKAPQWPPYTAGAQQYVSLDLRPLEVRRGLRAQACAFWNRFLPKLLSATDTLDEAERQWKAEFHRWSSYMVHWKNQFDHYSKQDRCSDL
# ASSAY_COMMENT: Acetylcholinesterase Inhibition Assay (other cholinesterase activity tests, may be less reliable)
# Assay type: biochemical
# SETTINGS: −10^−5; results may be less reliable
Entries and their % Inhibition at −10^−5
ENDPOINT: % Inhibition at −10^−5 (%)

INSERT INTO assay_data (compound, recorded_value) VALUES
  ('COc1ccc2c3c1O[C@H]1C[C@@H](OC(=O)C4CC4)C=C[C@@]31CCN(C)C2', 40),
  ('CCCOC(N)=O [n-propyl carbamate]', 34),
  ('COc1ccc2c3c1O[C@H]1C[C@@H](OC(=O)c4ccccc4F)C=C[C@@]31CCN(C)C2', 27),
  ('CCCCC(=O)O[C@H]1C=C[C@@]23CCN(C)Cc4ccc(OC)c(c42)O[C@H]3C1', 41),
  ('CCCCCC(=O)O[C@H]1C=C[C@@]23CCN(C)Cc4ccc(OC)c(c42)O[C@H]3C1', 55),
  ('CCNC(=O)O[C@H]1C=C[C@@]23CCN(C)Cc4ccc(OC)c(c42)O[C@H]3C1 [ethyl carbaxnate]', 59),
  ('COc1ccc2c3c1O[C@H]1C[C@@H](OC(=O)CC(C)C)C=C[C@@]31CCN(C)C2', 33),
  ('CC(C)OC(N)=O [isopropyl carbamate]', 21),
  ('CCCCCCCCOC(N)=O [octyl carbamate]', 55),
  ('CCCCNC(=O)O[C@@H]1C=CC23CCN(C)Cc4ccc(OC)c(c42)O[C@@H]3C1 (stereo partly shown) [galanthamine n-butyl carbamate]', 44);

====

Listing: % Inhibition at 10^−7 of selected compounds
# EXPERIMENTAL_SYSTEM: acetylcholinesterase (Homo sapiens, UniProt P22303)
# ASSAY_COMMENT: Acetylcholinesterase Inhibition Assay (other cholinesterase activity tests, may be less reliable)
# Type: biochemical
# SETTINGS: 10^−7; results may be less reliable
ENDPOINT: % Inhibition at 10^−7 (%)

INSERT INTO measurements (compound, recorded_value) VALUES
  ('CCCCC(=O)O[C@H]1C=C[C@@]23CCN(C)Cc4ccc(OC)c(c42)O[C@H]3C1 [valeric ester]', 37),
  ('CCCCNC(=O)O[C@@H]1C=CC23CCN(C)Cc4ccc(OC)c(c42)O[C@@H]3C1 (stereo partly drawn) [galanthamine n-butyl carbamate]', 9),
  ('CCCCCCCCOC(N)=O [octyl carbamate]', 16);
